Provide the recorded inhibition at 10 µM for the entries that follow.
biological target: CYP2B6 (Homo sapiens, UniProt P20813); assay: in vitro; conditions: probe Buproprion
Sequence (P20813 whole entry): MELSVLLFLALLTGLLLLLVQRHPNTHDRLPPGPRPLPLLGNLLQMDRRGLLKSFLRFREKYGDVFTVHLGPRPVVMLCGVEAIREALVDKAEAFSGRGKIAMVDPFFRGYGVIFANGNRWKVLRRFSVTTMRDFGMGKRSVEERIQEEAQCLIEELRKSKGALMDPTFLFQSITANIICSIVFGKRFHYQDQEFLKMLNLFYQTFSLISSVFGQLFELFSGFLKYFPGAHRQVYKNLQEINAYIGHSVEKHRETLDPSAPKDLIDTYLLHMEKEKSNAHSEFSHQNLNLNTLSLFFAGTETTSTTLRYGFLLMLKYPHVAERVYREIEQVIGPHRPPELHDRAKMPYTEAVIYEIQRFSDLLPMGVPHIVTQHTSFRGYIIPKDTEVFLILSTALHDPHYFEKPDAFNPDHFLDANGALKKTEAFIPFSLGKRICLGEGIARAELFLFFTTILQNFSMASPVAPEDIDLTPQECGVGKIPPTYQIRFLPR
Reply with just the number (in %).

Summary for this compound, Clc1ccccc1CN1CCc2sccc2C1 [Ticlopidine, reference compound] : inhibition at 10 µM is 98.2

Summary for this compound, C[C@@H](C(=O)Nc1ccnc(-c2cnc(N3CCC[C@H]3C(F)(F)F)nc2)n1)n1cnc2c1c(=O)n(C)c(=O)n2C : inhibition at 10 µM is 15.1

###

target: mTRPA1 (Mus musculus); experiment: TRPA1 IC50, whole-cell patch clamp; settings: mTRPA1, 10 μM AITC; read-out: IC50 Inward current
Sequence (Q8BLA8 whole entry): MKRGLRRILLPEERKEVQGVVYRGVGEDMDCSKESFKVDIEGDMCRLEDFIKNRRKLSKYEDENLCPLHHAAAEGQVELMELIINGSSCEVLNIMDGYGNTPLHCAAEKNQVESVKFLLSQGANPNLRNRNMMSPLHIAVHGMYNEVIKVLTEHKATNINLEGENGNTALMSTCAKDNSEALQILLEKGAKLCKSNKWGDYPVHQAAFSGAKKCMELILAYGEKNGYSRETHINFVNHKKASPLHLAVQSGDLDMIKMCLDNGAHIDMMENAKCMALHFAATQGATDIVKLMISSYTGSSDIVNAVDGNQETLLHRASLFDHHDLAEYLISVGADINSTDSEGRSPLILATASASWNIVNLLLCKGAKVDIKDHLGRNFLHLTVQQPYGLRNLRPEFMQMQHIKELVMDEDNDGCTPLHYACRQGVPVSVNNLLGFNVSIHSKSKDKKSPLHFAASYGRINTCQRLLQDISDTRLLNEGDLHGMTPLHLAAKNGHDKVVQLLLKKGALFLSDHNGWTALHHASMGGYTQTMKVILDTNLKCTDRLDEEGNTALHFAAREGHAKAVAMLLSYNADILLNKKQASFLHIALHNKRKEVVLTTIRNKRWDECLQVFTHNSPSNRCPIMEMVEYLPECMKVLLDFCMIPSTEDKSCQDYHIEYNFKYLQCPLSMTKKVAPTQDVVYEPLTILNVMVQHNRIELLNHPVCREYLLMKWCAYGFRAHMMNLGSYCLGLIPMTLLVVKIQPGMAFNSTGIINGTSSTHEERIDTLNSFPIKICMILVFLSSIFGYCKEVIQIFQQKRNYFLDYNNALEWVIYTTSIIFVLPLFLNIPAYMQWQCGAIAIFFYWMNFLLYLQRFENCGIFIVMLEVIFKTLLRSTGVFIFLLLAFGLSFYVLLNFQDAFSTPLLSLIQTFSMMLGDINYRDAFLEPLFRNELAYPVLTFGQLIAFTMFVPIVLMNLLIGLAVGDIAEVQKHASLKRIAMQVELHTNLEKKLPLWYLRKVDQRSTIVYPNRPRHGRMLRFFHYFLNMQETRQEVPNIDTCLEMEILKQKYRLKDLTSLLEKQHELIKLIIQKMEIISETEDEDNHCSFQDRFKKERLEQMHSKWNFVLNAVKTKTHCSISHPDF
Measurement kind: pIC50
A value of pIC50 is the negative decimal logarithm of a concentration given in moles per litre.

Summary for this compound, C[C@@H](C(=O)Nc1ccnc(-c2cnc(N3CCC[C@H]3C(F)(F)F)nc2)n1)n1cnc2c1c(=O)n(C)c(=O)n2C [Compound 2] : pIC50 is 7.58
